Target: purified VDAC1 (Homo sapiens)
Sequence (P21796 whole entry, species assumed): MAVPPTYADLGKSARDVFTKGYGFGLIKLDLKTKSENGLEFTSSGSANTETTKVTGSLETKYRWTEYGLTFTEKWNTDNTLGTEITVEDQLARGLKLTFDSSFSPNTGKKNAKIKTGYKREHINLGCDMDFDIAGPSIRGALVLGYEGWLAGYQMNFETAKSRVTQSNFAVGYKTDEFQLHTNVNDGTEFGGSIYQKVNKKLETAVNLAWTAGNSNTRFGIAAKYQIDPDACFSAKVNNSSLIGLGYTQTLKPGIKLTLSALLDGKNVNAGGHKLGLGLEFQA
Assay: Glass-bound peptide array probed with purified VDAC1 and anti-VDAC1 antibodies
Assay type: binding
Set-up: key: +: low; ++: medium; +++: high
Details: glass-bound peptide array incubated 4 h with purified VDAC1 (64 nM); antibody against VDAC1 N-terminus; chemiluminescence
Description: A customized peptide array was produced by INTAVIS Peptide Services (GmbH & Co. KG, Tübingen, Germany). It comprised 768 peptide sequences derived from 19 VDAC1-interacting proteins that were arrayed on a glass slide. Each peptide was composed of 25 amino acids with an overlap of 15 amino acids with the peptides before and following it. […]
Attribute Measured: Spot intensity, detected using anti-N-terminus VDAC1

Chain	Val
GTATQMRQSSSWTRVFQSWWDRNLG [1A16, array peptide from BAD]	++
TKVPELIRTIMGWTLDFLRERLLGW [1B10, array peptide from BAX]	+++
RVVALFYFASKLVLKALCTKVPELI [1B8, array peptide from BAX]	++
KVQRAVCMLSNTTAIAEAWARLDHK [2B5, array peptide from tubulin alpha 1b]	+
RAVQHREVQGFESATFLGYFKSGLK [2G18, array peptide from gelsolin isoform b]	+
FRDEGGKAFFKGAWSNVLRGMGGAF [1G17, array peptide from ANT3]	+

Query: What Spot intensity, detected using anti-N-terminus VDAC1 value was documented for this sequence, KDFLAGGIAAAISKTAVAPIERVKL [1F13, array peptide from ANT3] ?
Reply: ++
